- assay target: Sodium-dependent serotonin transporter (Homo sapiens)
- Sequence (P31645 whole entry): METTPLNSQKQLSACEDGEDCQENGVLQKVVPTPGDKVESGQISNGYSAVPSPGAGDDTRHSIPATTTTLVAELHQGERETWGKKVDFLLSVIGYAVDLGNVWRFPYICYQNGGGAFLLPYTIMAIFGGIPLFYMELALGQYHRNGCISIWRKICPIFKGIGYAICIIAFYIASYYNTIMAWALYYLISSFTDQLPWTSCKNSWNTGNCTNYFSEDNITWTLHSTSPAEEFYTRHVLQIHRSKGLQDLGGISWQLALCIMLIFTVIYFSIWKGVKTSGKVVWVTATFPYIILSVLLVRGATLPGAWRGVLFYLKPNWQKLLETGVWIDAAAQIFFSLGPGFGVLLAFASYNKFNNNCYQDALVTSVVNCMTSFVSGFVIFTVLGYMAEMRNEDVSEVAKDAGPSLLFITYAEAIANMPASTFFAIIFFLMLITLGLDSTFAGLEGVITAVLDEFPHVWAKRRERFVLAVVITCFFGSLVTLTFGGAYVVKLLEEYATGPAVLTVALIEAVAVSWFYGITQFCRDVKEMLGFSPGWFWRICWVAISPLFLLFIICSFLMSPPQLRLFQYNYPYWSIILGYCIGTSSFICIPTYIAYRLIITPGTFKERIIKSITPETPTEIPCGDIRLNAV
readout type: IC50

Recorded result, CN1CCN(CC(c2cccc(Cl)c2)C2(O)CCCCC2)CC1 (stereo unspecified) , IC50: > 2000 nM

----------
# INH per record follows
- assay target: UniProtKB P23975
- Sequence (P23975 whole entry): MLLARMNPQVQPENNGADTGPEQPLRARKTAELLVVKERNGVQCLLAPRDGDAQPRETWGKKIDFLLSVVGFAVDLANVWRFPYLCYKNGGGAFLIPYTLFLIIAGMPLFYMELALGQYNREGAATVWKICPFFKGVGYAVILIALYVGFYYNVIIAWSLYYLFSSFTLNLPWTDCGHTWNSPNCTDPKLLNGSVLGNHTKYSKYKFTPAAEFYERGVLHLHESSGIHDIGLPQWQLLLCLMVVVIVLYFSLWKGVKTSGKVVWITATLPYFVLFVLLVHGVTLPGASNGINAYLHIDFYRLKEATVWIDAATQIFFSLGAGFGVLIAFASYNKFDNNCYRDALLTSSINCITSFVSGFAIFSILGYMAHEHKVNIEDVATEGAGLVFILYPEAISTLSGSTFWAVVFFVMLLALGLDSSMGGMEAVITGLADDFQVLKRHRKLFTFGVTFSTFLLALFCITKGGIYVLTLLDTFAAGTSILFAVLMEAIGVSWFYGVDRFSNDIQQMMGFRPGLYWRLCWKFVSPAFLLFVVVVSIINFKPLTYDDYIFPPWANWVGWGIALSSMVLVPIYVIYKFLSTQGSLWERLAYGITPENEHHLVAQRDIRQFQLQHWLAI
- experiment summary: Inhibition of human NET transfected in MDCK-Net6 cells at 1 uM
- Format: cell-based
Dear colleague, please return just the value in µM, with no unit written.

Field: example entries. Status: answers known.
molecule	readout type	experimental value
OC1(C(CN2CCNCC2)c2csc(Cl)c2)CCCCC1 (centres undefined)	INH	86
OC1(C(CN2CCNCC2)c2csc3ccccc23)CCCCC1 (centres undefined)	INH	82
CN1CCN(CC(c2csc(Cl)c2)C2(O)CCCCC2)CC1 (centres undefined)	INH	88
OC1(C(CN2CCNCC2)c2cc3ccccc3s2)CCCCC1 (centres undefined)	INH	73
CN1CCN(C[C@@H](c2csc(Cl)c2)C2(O)CCCCC2)CC1	INH	0
OC1(C(CN2CCNCC2)c2ccsc2Cl)CCCCC1 (centres undefined)	INH	55
CN1CCN(C[C@H](c2csc(Cl)c2)C2(O)CCCCC2)CC1	INH	91
OC1(C(CN2CCNCC2)c2c[nH]c3ccccc23)CCCCC1 (centres undefined)	INH	21
CN1CCN(C[C@H](c2cccc(Cl)c2)C2(O)CCCCC2)CC1	INH	92
OC1(C(CN2CCNCC2)c2ccc(Cl)s2)CCCCC1 (centres undefined)	INH	50.8

Recorded result, OC1(C(CN2CCNCC2)c2cnc3ccccc3c2)CCCCC1 (centres undefined) , INH: 19

Recorded result, OC1(C(CN2CCNCC2)c2cccs2)CCCCC1 (centres undefined) , INH: 54

Recorded result, OC1(C(CN2CCNCC2)c2cc(Cl)sc2Cl)CCCCC1 (centres undefined) , INH: 94

Recorded result, Cn1cc(C(CN2CCNCC2)C2(O)CCCCC2)c2ccccc21 (centres undefined) , INH: 32

Value source: ChEMBL document CHEMBL1158540
